- tested.system: T1, monomeric recombinant human Notch3 extracellular domain (containing EGF like domains 1-11) fusion protein (human, UniProt Q9UM47 40-467)
- T1 construct: domain: EGF like domains 1-11; also called monomeric rhNotch3
- T1 sequence (looked up): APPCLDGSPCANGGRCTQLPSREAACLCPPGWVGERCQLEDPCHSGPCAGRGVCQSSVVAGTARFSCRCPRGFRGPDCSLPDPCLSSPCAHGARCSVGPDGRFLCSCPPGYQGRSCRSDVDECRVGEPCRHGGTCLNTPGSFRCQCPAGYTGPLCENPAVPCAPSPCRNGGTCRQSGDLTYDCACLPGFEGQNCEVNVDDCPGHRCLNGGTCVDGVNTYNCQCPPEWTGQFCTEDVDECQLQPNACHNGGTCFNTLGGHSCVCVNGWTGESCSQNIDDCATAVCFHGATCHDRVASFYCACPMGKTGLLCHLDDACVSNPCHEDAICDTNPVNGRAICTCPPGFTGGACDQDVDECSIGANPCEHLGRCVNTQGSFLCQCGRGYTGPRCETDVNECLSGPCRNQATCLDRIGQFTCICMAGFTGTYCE
- assay.info: SPR BIAcore T100, antibody captured by anti-human IgG Fc, monomeric rhNotch3 analyte, 37 C
- Method: The binding affinities and kinetics of binding of chimeric and humanized antibodies to monomeric recombinant human Notch3 extracellular domain (containing EGF like domains 1-11) fusion protein (monomeric rhNotch3) and monomeric recombinant cynomologus monkey Notch3 extracellular domain (containing EGF like domains 1-12) fusion protein (monomeric rcNotch3) were measured by surface plasmon resonance, using a BIAcore® T100 instrument (GE Healthcare, Piscataway, N.J.). […]
Catalogue of kon readings, one per entry.
Express it in M⁻¹ s⁻¹; write the number only.

Consider the reported kon for these binders:
| binder | measured.parameter | experimental.result |
| --- | --- | --- |
| Hu4F11-71 (antibody, human IgG1, kappa, V domains shown, Humanized, human IgG1 kappa; Hv3-23 A28T T62S heavy + Kv2D-29 N28H kappa) VH: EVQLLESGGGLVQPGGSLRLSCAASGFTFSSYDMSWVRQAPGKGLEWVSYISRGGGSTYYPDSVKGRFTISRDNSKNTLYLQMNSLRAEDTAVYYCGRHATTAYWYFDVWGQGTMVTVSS VL: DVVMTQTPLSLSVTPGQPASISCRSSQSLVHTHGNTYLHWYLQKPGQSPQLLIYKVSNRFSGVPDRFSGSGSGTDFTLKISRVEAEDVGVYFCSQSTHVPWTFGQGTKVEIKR | kon | 1.2e+06 |
| Hu4F11-32 (antibody, human IgG1, kappa, V domains shown, Humanized, human IgG1 kappa; Sh4F11 Hv3-23 heavy + Hu4F11 Kv2D-29 kappa) VH: EVQLLESGGGLVQPGGSLRLSCAASGFAFSSYDMSWVRQAPGKGLEWVSYISRGGGSTYYPDTVKGRFTISRDNSKNTLYLQMNSLRAEDTAVYYCGRHATTAYWYFDVWGQGTMVTVSS VL: DVVMTQTPLSLSVTPGQPASISCRSSQSLVHTNGNTYLHWYLQKPGQSPQLLIYKVSNRFSGVPDRFSGSGSGTDFTLKISRVEAEDVGVYFCSQSTHVPWTFGQGTKVEIKR | kon | 1.7e+06 |

Okay, next one:
Request: I have this binder here, Hu4F11-79 (antibody, human IgG1, kappa, V domains shown, Humanized, human IgG1 kappa; Hv3-23 A28T T62S heavy + Kv2D-29 N28Q kappa) VH: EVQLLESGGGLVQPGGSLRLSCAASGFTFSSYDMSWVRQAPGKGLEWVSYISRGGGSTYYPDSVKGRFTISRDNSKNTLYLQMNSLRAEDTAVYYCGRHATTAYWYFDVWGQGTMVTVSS VL: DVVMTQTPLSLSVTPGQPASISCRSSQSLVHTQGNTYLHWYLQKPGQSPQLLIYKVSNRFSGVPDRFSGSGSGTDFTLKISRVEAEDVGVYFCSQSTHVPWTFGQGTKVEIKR , and I need its recorded kon.
Response: 1.8e+06
